Below, each entry is listed alongside its reported CD28 scFv signal in presence of CD28.
# TEST_TARGET: anti-CD28 scFv (VH - linker 1 - VL) (biotinylated (captured on neutravidin coated plates))
# Sequence (scFv, as listed by the source): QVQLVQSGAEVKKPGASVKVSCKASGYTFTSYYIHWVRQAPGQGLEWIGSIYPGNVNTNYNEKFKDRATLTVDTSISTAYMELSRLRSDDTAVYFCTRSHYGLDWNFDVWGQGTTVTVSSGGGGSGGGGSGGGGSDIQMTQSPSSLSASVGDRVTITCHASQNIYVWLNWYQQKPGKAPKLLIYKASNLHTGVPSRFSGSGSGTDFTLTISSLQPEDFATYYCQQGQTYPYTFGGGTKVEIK
# EXPERIMENT_SUMMARY: clonal phage ELISA on anti-CD28 scFv; wells pre-incubated with soluble CD28 (competitor);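 further: crude phage supernatants added to wells preloaded with blocking buffer plus soluble CD28, bound phage read with HRP-linked anti-M13 antibody, comparison wells received blocking buffer only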
Lab note: jot the number down without any unit.

Worked cases, answers included:
BINDER: MDWCPRDRWSDCFN [Phage-227]
CD28 scFv signal in presence of CD28: 0.074
//
BINDER: MDWCPRHLWYECFN [Phage-243]
CD28 scFv signal in presence of CD28: 0.167
//
BINDER: VPWCLIISGLDCLN (also called VPWCLIISGLDCIN (so in the source)) [Phage-231]
CD28 scFv signal in presence of CD28: 0.09
//
BINDER: MDWCPRYLWHECFS [Phage-235]
CD28 scFv signal in presence of CD28: 0.303
//
BINDER: MTWCPTSFWNRCLD [Phage-233]
CD28 scFv signal in presence of CD28: 0.405
//
BINDER: MDWCPKHLWNKCFN [Phage-246]
CD28 scFv signal in presence of CD28: 0.092

Lab note: MDWCPKVMWHYCFA [Phage-250] gave CD28 scFv signal in presence of CD28 of 0.252

Entry MDWCPKHLWTECFA [Phage-242] — recorded CD28 scFv signal in presence of CD28 = 0.145

Value of measured CD28 scFv signal in presence of CD28 for the entry MDWCPRDLWNLCFF [Phage-236] : 0.436

Reported CD28 scFv signal in presence of CD28 of MDWCARFVGYGCLD [Phage-232] : 0.074
